Test system: expanded OPCs
Experiment: cells
Settings: Rattus norvegicus, 72 h, read-out: 10 µM (% DMSO), alamarBlue viability of expanded OPCs, compound at 10 µM, sheet All Tox data
testReadout: viability at 10 µM (%)
Answers are plain numbers, in %.

[
  {
    "compound": "COc1ccnc(C[S+]([O-])c2nc3ccc(OC(F)F)cc3[nH]2)c1OC (centres unmarked)",
    "viability at 10 µM / %": 95.2
  }
]

Would you mind listing viability at 10 µM for each of the following compounds?
1. CC1(C)S[C@@H]2[C@H](/N=C/N3CCCCCC3)C(=O)N2[C@H]1C(=O)O
2. COc1ccc(-c2cc(=O)c3c(OC)c(OC)c(OC)c(OC)c3o2)cc1OC
3. COCCCC/C(=N\OCCN)c1ccc(C(F)(F)F)cc1
4. Clc1ccccc1CN1CCc2sccc2C1
5. Nc1nc(N)nc(-c2cc(Cl)ccc2Cl)n1
6. COc1nc(C)nc(Cl)c1N=C1NCCN1
7. CN1CCCC(n2nc(Cc3ccc(Cl)cc3)c3ccccc3c2=O)CC1 (centres unmarked)

Result:
102
28.1
40
90.3
94.8
98.4
12

====

Tested on: expanded OPCs
Test: cells
Settings: Rattus norvegicus, 72 h, read-out: 10 µM (% DMSO), alamarBlue viability, NCC library compound at 10 µM, sheet "All Tox data"
Excerpt: Having established a consistent assay for measuring OL differentiation in vitro, the next step was to utilize this assay to assess the ability of a wide array of compounds to promote OL differentiation. Prior to library screening, we first established the maximum non-toxic dose of each compound in the library. […] Three days later, we assessed viability of the treated cells by measuring AlamarBlue fluorescence, a measure of cell viability (see “Methods” section). […]
Where a name gives a salt, the structure may show the parent alone.
Assign labels as follows, please: MET for viability at 10 µM below 70%; NOT MET for viability at 10 µM equal to or exceeding 70%.

Reference set, count: 2
[
  {
    "compound": "CCCOc1ccc(C(=O)OCCN(CC)CC)cc1N [Proxymetacaine, reference compound]",
    "targetEntity": "expanded OPCs",
    "className": "NOT MET"
  },
  {
    "compound": "Oc1cc2c(cc1O)[C@H]1c3ccccc3CN[C@@H]1CC2 (racemic) [Dihydrexidine]",
    "targetEntity": "expanded OPCs",
    "className": "MET"
  }
]

Q: Confirm or reject: viability at 10 µM of Cc1ccc(NC(=O)c2ccc(CN3CCN(C)CC3)cc2)cc1Nc1nccc(-c2cccnc2)n1 [Imatinib mesylate] lies strictly below 70%
Result: MET

Q: Confirm or reject: viability at 10 µM of NC(=O)c1cccnc1 [Niacinamide] lies strictly below 70%
Result: NOT MET

Q: Confirm or reject: viability at 10 µM of CN(C/C=C/C#CC(C)(C)C)Cc1cccc2ccccc12 [Terbinafine] lies strictly below 70%
Result: MET

Q: Confirm or reject: viability at 10 µM of NCC(=O)CCC(=O)O [Aminolevulinic Acid] lies strictly below 70%
Result: NOT MET

Q: Confirm or reject: viability at 10 µM of CCC(=O)NS(=O)(=O)c1ccc(-c2c(-c3ccccc3)noc2C)cc1 [Parecoxib] lies strictly below 70%
Result: NOT MET

Q: Confirm or reject: viability at 10 µM of Clc1cccc(Cl)c1N=C1NCCN1 [Clonidine hydrochloride] lies strictly below 70%
Result: NOT MET

Q: Confirm or reject: viability at 10 µM of C[C@]12CCC(=O)C=C1CC[C@@H]1[C@@H]2CC[C@@]2(C)[C@H]1CC[C@]2(O)C(=O)CO [Cortodoxone] lies strictly below 70%
Result: NOT MET

Q: Confirm or reject: viability at 10 µM of CCCCC(=O)O[C@H]1CC[C@H]2[C@@H]3CCc4cc(O)ccc4[C@H]3CC[C@]12C [Estradiol valerate] lies strictly below 70%
Result: MET

Q: Confirm or reject: viability at 10 µM of C[C@]12C[C@H](O)[C@H]3[C@@H](CCC4=CC(=O)CC[C@@]43C)[C@@H]1CC[C@@H]2C(=O)CO [Corticosterone] lies strictly below 70%
Result: NOT MET

Q: Confirm or reject: viability at 10 µM of CC[C@H]1OC(=O)[C@H](C)C(=O)[C@H](C)[C@@H](O[C@@H]2O[C@H](C)C[C@H](N(C)C)[C@H]2O)[C@](C)(OC)C[C@@H](C)C(=O)[C@H](C)[C@H]2N(CCCCn3cnc(-c4cccnc4)c3)C(=O)O[C@]12C [Telithromycin] lies strictly below 70%
Result: NOT MET

Q: Confirm or reject: viability at 10 µM of Nc1ncnc2c1ncn2[C@@H]1O[C@H](CO)[C@@H](O)[C@H]1O [Adenosine] lies strictly below 70%
Result: NOT MET

Q: Confirm or reject: viability at 10 µM of CCc1nc(N)nc(N)c1-c1ccc(Cl)cc1 [Pyrimethamine] lies strictly below 70%
Result: MET

====

Test system: expanded OPCs
Assay: cells
Details: Rattus norvegicus, 72 h, read-out: 10 µM (% DMSO), alamarBlue viability, NCC library compound at 10 µM, sheet "All Tox data"
Task for the reader: assign each of the following compounds its reported viability at 10 µM.
One number for each entry, in %.

Completed entries (count: 2):
[
  {
    "compound": "C[C@]12C=CC(=O)C=C1CC[C@@H]1[C@@H]2[C@@H](O)C[C@@]2(C)[C@H]1CC[C@]2(O)C(=O)COC(=O)CCC(=O)O [Prednisolone hemisuccinate]",
    "targetEntity": "expanded OPCs",
    "viability at 10 µM (%)": 94.3
  },
  {
    "compound": "CCCCc1oc2ccccc2c1C(=O)c1cc(I)c(OCCN(CC)CC)c(I)c1",
    "targetEntity": "expanded OPCs",
    "viability at 10 µM (%)": 8.6
  }
]

As a next step, examine the compound that follows.
Q: Using the record for Clc1ccc2c(c1)CCc1cccnc1C2=C1CCNCC1 , report its viability at 10 µM.
Result: 10.5

====

System: expanded OPCs
Experiment: cells
Conditions: alamarBlue viability of expanded OPCs, compound at 0.1 µM, relative to DMSO control
Assign labels as follows, please: 1 (yes) for 0.1 µM (% DMSO) below 90 % DMSO; 0 (no) for 0.1 µM (% DMSO) equal to or exceeding 90 % DMSO.

[
  {
    "compound": "Oc1ncnc2[nH]ncc12 [Allopurinol]",
    "className": "1 (yes)"
  },
  {
    "compound": "CC1(C)S[C@@H]2[C@H](NC(=O)[C@H](N)c3ccc(O)cc3)C(=O)N2[C@H]1C(=O)O [Amoxicillin]",
    "className": "0 (no)"
  },
  {
    "compound": "Cc1ccc(-c2cc(C(F)(F)F)nn2-c2ccc(S(N)(=O)=O)cc2)cc1 [Celecoxib]",
    "className": "0 (no)"
  },
  {
    "compound": "CC(=O)OCC(=O)[C@@]1(O)CC[C@H]2[C@@H]3C[C@H](C)C4=CC(=O)C=C[C@]4(C)[C@H]3[C@@H](O)C[C@@]21C [Methylprednisolone acetate]",
    "className": "0 (no)"
  },
  {
    "compound": "NC[C@H](O)c1ccc(O)c(O)c1 [Norepinephrine]",
    "className": "0 (no)"
  },
  {
    "compound": "C[C@](N)(Cc1ccc(O)c(O)c1)C(=O)O [Methyldopa]",
    "className": "0 (no)"
  },
  {
    "compound": "CCCNC(=O)NS(=O)(=O)c1ccc(Cl)cc1 [Chlorpropamide]",
    "className": "0 (no)"
  },
  {
    "compound": "CC(=O)OCC(=O)[C@@]1(O)CC[C@H]2[C@@H]3CCC4=CC(=O)C=C[C@]4(C)[C@H]3[C@@H](O)C[C@@]21C [Prednisolone acetate]",
    "className": "0 (no)"
  }
]

Q: Confirm or reject: 0.1 µM (% DMSO) of CC[C@H]1OC(=O)[C@H](C)[C@@H](O[C@H]2C[C@@](C)(OC)[C@@H](O)[C@H](C)O2)[C@H](C)[C@@H](O[C@@H]2O[C@H](C)C[C@H](N(C)C)[C@H]2O)[C@](C)(O)C[C@@H](C)CN(C)[C@H](C)[C@@H](O)[C@]1(C)O [Azithromycin] lies strictly below 90 % DMSO
Result: 1 (yes)

Q: Confirm or reject: 0.1 µM (% DMSO) of C#CCN(C)[C@H](C)Cc1ccccc1 [Selegiline] lies strictly below 90 % DMSO
Result: 0 (no)

Q: Confirm or reject: 0.1 µM (% DMSO) of Nc1cc(N2CCCCC2)nc(N)[n+]1[O-] [Minoxidil] lies strictly below 90 % DMSO
Result: 0 (no)

Q: Confirm or reject: 0.1 µM (% DMSO) of c1ccc2c(CC3=NCCN3)cccc2c1 [Naphazoline] lies strictly below 90 % DMSO
Result: 0 (no)
